The reader will find reported solubility values listed item by item below.
experiment: Solubility of compound by pH 2; type: physicochemical; details: buffer

Recorded results for 2 molecules are shown here.
Task: solubility lookup needed for C[C@H](NS(=O)(=O)c1ccc(-c2sc(-c3nnc([C@H]4C[C@H](C(=O)O)C4)o3)nc2CC2CCC2)c(Cl)c1Cl)C(F)(F)F , thanks.
Output: < 4 µM

Task: solubility lookup needed for C[C@H](NS(=O)(=O)c1ccc(-c2sc(-c3nnc(C(C)(C)O)o3)nc2C(=O)N2CCC(F)(F)CC2)c(Cl)c1Cl)C(F)(F)F , thanks.
Output: 18 µM

Below: the item to evaluate.
Task: solubility lookup needed for C[C@H](NS(=O)(=O)c1ccc(-c2sc(-c3nnc(CC(C)(C)C(=O)O)o3)nc2C(=O)N2CCCC[C@@H]2C)c(C(F)F)c1F)C(F)(F)F , thanks.
Output: < 4 µM

---

experiment: Protein binding in rat plasma; format: ADME, cell-free; details: read-out: PPB (converted)
measure: fraction unbound
# respond with the number and nothing more

Task: fraction unbound lookup needed for C[C@H](NS(=O)(=O)c1ccc(-c2sc(-c3nnc(C(C)(C)O)o3)nc2C(=O)N2CCC(F)(F)CC2)c(Cl)c1Cl)C(F)(F)F , thanks.
Output: 0.095

---

assay: Protein binding in human plasma; assay type: ADME, cell-free; conditions: read-out: PPB (converted)
measure: fraction unbound
# respond with the number and nothing more

Task: fraction unbound lookup needed for C[C@H](NS(=O)(=O)c1ccc(-c2sc(-c3nnc(C(C)(C)O)o3)nc2C(=O)N2CCC(F)(F)CC2)c(Cl)c1Cl)C(F)(F)F , thanks.
Output: 0.077

Below: the item to evaluate.
Task: fraction unbound lookup needed for CC[C@H](NS(=O)(=O)c1ccc(-c2sc(CC(C)(C)C(=O)O)nc2CC2CCC2)c(C(F)F)c1F)C(F)(F)F , thanks.
Output: 0.003

---

assay: Plasma concentration in mouse at 3 mg/kg, po measured after 1 hr; type: ADME, organism-based
measure: concentration at 1 h (nM)
Respond with the bare value in nM.

Task: concentration at 1 h lookup needed for C[C@H](NS(=O)(=O)c1ccc(-c2sc(-c3nnc(C(C)(C)O)o3)nc2C(=O)N2CCC(F)(F)CC2)c(Cl)c1Cl)C(F)(F)F , thanks.
Output: 490

---

The reader will find reported solubility values listed item by item below.
assay: Solubility of compound by pH 7; assay type: physicochemical; settings: buffer

Task: solubility lookup needed for C[C@H](NS(=O)(=O)c1ccc(-c2sc(CC(C)(C)C(=O)O)nc2CC2CCC2)c(Cl)c1Cl)C(F)(F)F , thanks.
Output: 268 µM

Task: solubility lookup needed for C[C@H](NS(=O)(=O)c1ccc(-c2sc(-c3nnc(CC(C)(C)C(=O)O)o3)nc2CC2CCC2)c2ccccc12)C(F)(F)F , thanks.
Output: 24 µM

Task: solubility lookup needed for C[C@H](NS(=O)(=O)c1ccc(-c2sc(-c3nnc([C@H]4C[C@H](C(=O)O)C4)o3)nc2CC2CCC2)c(Cl)c1Cl)C(F)(F)F , thanks.
Output: 118 µM

Task: solubility lookup needed for CC[C@H](NS(=O)(=O)c1ccc(-c2sc(CC(C)(C)C(=O)O)nc2CC2CCC2)c(C(F)F)c1F)C(F)(F)F , thanks.
Output: 355 µM

Task: solubility lookup needed for C[C@H](NS(=O)(=O)c1ccc(-c2sc(-c3cnc(CC(C)(C)C(=O)O)s3)nc2CC2CCC2)c(Cl)c1Cl)C(F)(F)F , thanks.
Output: < 4 µM

Task: solubility lookup needed for C[C@H](NS(=O)(=O)c1ccc(-c2sc(-c3nnc(C(C)(C)O)o3)nc2C(=O)N2CCC(F)CC2)c(Cl)c1Cl)C(F)(F)F , thanks.
Output: 165 µM

More entries:
Task: solubility lookup needed for CC[C@H](NS(=O)(=O)c1ccc(-c2sc(-c3nnc(CC(C)(C)C(=O)O)o3)nc2CC2CCCCC2)c(C(F)F)c1F)C(F)(F)F , thanks.
Output: < 4 µM

Task: solubility lookup needed for CC(C)(C)NS(=O)(=O)c1ccc(-c2sc(-c3nnc(C(C)(C)O)o3)nc2CC2CCCCC2)c2ccccc12 , thanks.
Output: < 1 µM

---

Molecular target: UniProt:Q92753
Sequence (Q92753 whole entry): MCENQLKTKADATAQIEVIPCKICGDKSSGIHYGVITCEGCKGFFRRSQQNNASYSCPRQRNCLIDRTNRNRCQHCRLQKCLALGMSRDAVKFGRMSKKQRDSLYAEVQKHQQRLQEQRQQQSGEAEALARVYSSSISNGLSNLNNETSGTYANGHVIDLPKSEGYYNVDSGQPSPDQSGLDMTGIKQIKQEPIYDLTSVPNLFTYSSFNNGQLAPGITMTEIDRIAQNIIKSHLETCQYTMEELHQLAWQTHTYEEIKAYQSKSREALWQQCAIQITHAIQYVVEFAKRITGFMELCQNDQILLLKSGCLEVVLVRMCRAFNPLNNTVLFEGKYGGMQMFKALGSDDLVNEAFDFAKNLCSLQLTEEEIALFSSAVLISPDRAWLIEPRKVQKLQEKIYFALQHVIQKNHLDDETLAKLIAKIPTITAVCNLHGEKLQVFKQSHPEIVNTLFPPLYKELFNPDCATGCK
pKd: −log10 of the molar value.
measure: pKd

Task: pKd lookup needed for C[C@H](NS(=O)(=O)c1ccc(-c2sc(-c3nnc(C(C)(C)O)o3)nc2C(=O)N2CCC(F)CC2)c(Cl)c1Cl)C(F)(F)F , thanks.
Output: < 4.30

---

target: Nuclear receptor subfamily 1 group I member 2 (Homo sapiens); assay: Activation of PXR (unknown origin) at 5 uM; type: ADME
Sequence (O75469 whole entry): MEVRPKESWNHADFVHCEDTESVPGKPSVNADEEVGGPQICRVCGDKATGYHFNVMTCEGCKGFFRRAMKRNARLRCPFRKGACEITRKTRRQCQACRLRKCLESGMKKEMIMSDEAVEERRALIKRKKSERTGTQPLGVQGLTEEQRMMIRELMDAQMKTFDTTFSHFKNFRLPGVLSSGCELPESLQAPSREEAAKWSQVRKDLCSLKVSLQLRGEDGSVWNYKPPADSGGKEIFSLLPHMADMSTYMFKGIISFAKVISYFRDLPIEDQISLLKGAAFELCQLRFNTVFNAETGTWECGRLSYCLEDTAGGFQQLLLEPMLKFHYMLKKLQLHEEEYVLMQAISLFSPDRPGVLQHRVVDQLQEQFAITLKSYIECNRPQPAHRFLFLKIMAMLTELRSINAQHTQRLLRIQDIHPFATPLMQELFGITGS
Criterion: Activity strictly less than 20%. Met: criterion met. Not met: criterion not met.

Solved entries:
Task: Hi there! Is Activity for CC[C@H](NS(=O)(=O)c1ccc(-c2sc(CC(C)(C)C(=O)O)nc2CC2CCC2)c(Cl)c1)C(F)(F)F below 20%, do you know?
Output: criterion met

Task: Hi there! Is Activity for CC[C@H](NS(=O)(=O)c1ccc(-c2sc(CC(C)(C)C(=O)O)nc2CC2CCC2)c(C(F)F)c1F)C(F)(F)F below 20%, do you know?
Output: criterion not met

Task: Hi there! Is Activity for C[C@H](NS(=O)(=O)c1ccc(-c2sc(CC(C)(C)C(=O)O)nc2CC2CCC2)c(C(F)(F)F)c1)C(F)(F)F below 20%, do you know?
Output: criterion not met

More entries:
Task: Hi there! Is Activity for CC[C@H](NS(=O)(=O)c1ccc(-c2sc(CC(C)(C)C(=O)O)nc2CC2CCC2)c(Cl)c1Cl)C(F)(F)F below 20%, do you know?
Output: criterion not met

Task: Hi there! Is Activity for C[C@H](NS(=O)(=O)c1ccc(-c2sc(CC(C)(C)C(=O)O)nc2CC2CCC2)c(Cl)c1Cl)C(F)(F)F below 20%, do you know?
Output: criterion not met

---

experiment: Solubility of compound by pH 7; format: physicochemical; conditions: buffer
The reader will find reported solubility values listed item by item below.

Recorded results for 2 compounds are shown here.
Task: solubility lookup needed for CC(C)(C)NS(=O)(=O)c1ccc(-c2sc(C(=O)N[C@H]3C[C@H](C(=O)O)C3)nc2CC2CCCCC2)c2ccccc12 , thanks.
Output: < 1 µM

Task: solubility lookup needed for CC(C)(O)CNC(=O)c1nc(CC2CCCCC2)c(-c2ccc(S(=O)(=O)NC(C)(C)C)c3ccccc23)s1 , thanks.
Output: < 4 µM

More entries:
Task: solubility lookup needed for C[C@H](NS(=O)(=O)c1ccc(-c2sc(-c3cc(CC(C)(C)C(=O)O)on3)nc2CC2CCC2)c(Cl)c1Cl)C(F)(F)F , thanks.
Output: < 4 µM

---

assay: Solubility of compound by pH 2; type: physicochemical; conditions: buffer
The reader will find reported solubility values listed item by item below.
Respond with the bare value in µM.

Task: solubility lookup needed for C[C@H](NS(=O)(=O)c1ccc(-c2sc(-c3nnc(CC(C)(C)C(=O)O)o3)nc2CN2CCCC(F)(F)C2)c(C(F)F)c1F)C(F)(F)F , thanks.
Output: 54

More entries:
Task: solubility lookup needed for C[C@H](NS(=O)(=O)c1ccc(-c2sc(-c3noc(C(C)(C)O)n3)nc2C(=O)N2CCC(F)CC2)c(Cl)c1Cl)C(F)(F)F , thanks.
Output: 9.7

---

test: Solubility of compound by pH 2; assay type: physicochemical; details: buffer
measure: solubility

Task: solubility lookup needed for C[C@H](NS(=O)(=O)c1ccc(-c2sc(-c3noc(CC(C)(C)C(=O)O)n3)nc2CC2CCC2)c(Cl)c1Cl)C(F)(F)F , thanks.
Output: < 4 µM

Task: solubility lookup needed for C[C@H](NS(=O)(=O)c1ccc(-c2sc(CC(C)(C)C(=O)O)nc2CC2CCC2)c(Cl)c1Cl)C(F)(F)F , thanks.
Output: < 4 µM

Below: the item to evaluate.
Task: solubility lookup needed for CC[C@H](NS(=O)(=O)c1ccc(-c2sc(-c3nnc(CC(C)(C)C(=O)O)o3)nc2CC2CCCCC2)c(C(F)F)c1F)C(F)(F)F , thanks.
Output: < 4 µM

Values were extracted from ChEMBL document CHEMBL4622850.
